experiment: RPMI8226 myeloma cell viability, profiling panel, resazurin fluorescence, basal, 24 h, PK04 Diversity Set (AID 1180); settings: higher = more signal;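 also: RPMI8826 multiple myeloma cell line at 5000 cells per well; test concentration not given here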
Label rule, in plain words: z-score of 0.08 and up is condition met, under 0.08 is condition not met.

Q: z-score >= 0.08 for C=CCC(OC(C)=O)[C@@H]1[C@@H](N(Cc2cccc3ccccc23)C(=O)Cc2ccc(F)cc2)c2cc(OCCCO)ccc2N1C(=O)c1ccc(-c2ccccc2)cc1 (some centres undefined) ?
A: condition met

Q: z-score >= 0.08 for O=C1O[C@H](c2ccccc2)[C@H](c2ccccc2)N2[C@H]1[C@@H](C(=O)O)[C@]1(C(=O)Nc3ccc(C#CC4(O)CCCCCC4)cc31)[C@H]2c1ccc(O)cc1 ?
A: condition not met

Q: z-score >= 0.08 for O=C1[C@@H]2[C@@H](CC(COc3ccccc3)=C3[C@@H](CCc4ccccc4)OB(O)C[C@@H]32)C(=O)N1Cc1ccccc1 ?
A: condition not met

Q: z-score >= 0.08 for COCC(=C=CC[C@@H](O)c1cccc(OCCO)c1)CCO ?
A: condition not met

Q: z-score >= 0.08 for CC(C)C(CO)N1C(=O)[C@@H]2[C@H]3C(=O)OCC=C[C@H]3OC23C=CCN(C(C)(C)C)C(=O)[C@@H]13 (some centres undefined) ?
A: condition not met

Q: z-score >= 0.08 for CC(=O)NCCCC[C@@H]1NC(=O)[C@H]2C[C@@H](C(=O)NCCCCCNC(=O)CS)[C@@H](c3cccc(OCCO)c3)N2C1=O ?
A: condition not met

Q: z-score >= 0.08 for C=CCC(OC(C)=O)[C@@H]1[C@@H](N(Cc2ccc(-c3cccc(C(F)(F)F)c3)o2)C(=O)c2cccc3ccccc23)c2cc(OCCCO)ccc2N1C(=O)Cc1ccc(OC)cc1 (some centres undefined) ?
A: condition not met

Q: z-score >= 0.08 for C=C(COC)/C(=C/C[C@H](OC(C)=O)c1cccc(OCCO)c1)c1cnc2ccccc2c1 ?
A: condition not met

Q: z-score >= 0.08 for CCCCCN1CC=CC23O[C@@H]4/C=C\CCC(C)OC(=O)C4[C@H]2C(=O)N(CCCCCCO)[C@@H]3C1=O (some centres undefined) ?
A: condition met

Q: z-score >= 0.08 for O=C1[C@@]23C=C(Br)[C@H](C[C@@H]2COC3)[C@@]12CO2 ?
A: condition not met

Q: z-score >= 0.08 for CCOC(=O)C[C@H]1[C@H](OC(=O)c2ccc(-c3ccccc3)cc2)[C@@H](NC(=O)CC(C)C)c2cc(OCCCO)ccc2N1C(=O)c1ccccc1 ?
A: condition not met

Q: z-score >= 0.08 for CCOC(=O)C[C@H]1[C@H](OC(=O)c2ccc(-c3ccccc3)cc2)[C@@H](NC(=O)Cc2ccc(OC)cc2)c2cc(OCCCO)ccc2N1C(=O)Cc1ccc(OC)cc1 ?
A: condition met

Q: z-score >= 0.08 for CCCCC(=O)N(CCN1CCOCC1)[C@@H]1CC(C(=O)NCCO)=C[C@H](Oc2c(I)cc(CO)cc2OC)[C@H]1O ?
A: condition met

Q: z-score >= 0.08 for CC(C)[Si]1(C(C)C)OCc2cc(-c3ccc(-c4ccc(Cl)c(Cl)c4)o3)nc(CCc3ccccc3)c21 ?
A: condition not met

Q: z-score >= 0.08 for CO[C@H]1O[C@H](CO)[C@@H](OC(=O)CCc2ccccc2)[C@H](OC(=O)c2cc3ccccc3[nH]2)[C@H]1OC(=O)c1cc2ccccc2[nH]1 ?
A: condition not met

Q: z-score >= 0.08 for CO[C@H]1O[C@H](CO)[C@@H](OC(=O)Nc2ccc(C#N)cc2)[C@@H]2OC(=O)[C@H](Cc3cccc(Br)c3)C/C=C/C[C@@H](Cc3cccc(Br)c3)C(=O)O[C@@H]12 ?
A: condition not met

Q: z-score >= 0.08 for COc1ccc([Si](C)(C)[C@@H]2[C@@H](CCn3cc([C@H](O)c4ccccc4)nn3)O[C@]3(C(=O)N(Cc4cccc(N5C(=O)c6cccc7cccc5c67)c4)c4ccccc43)[C@H]2C)cc1 ?
A: condition not met

Q: z-score >= 0.08 for Cc1ccc(S[C@]2(C(=O)NCC(C)C)CC(=O)N(C3Cc4ccccc4C3)[C@@H]2c2ccc(CO)cc2I)cc1 ?
A: condition not met

Q: z-score >= 0.08 for O=C(NCCN1CCOCC1)[C@@H]1c2ccccc2C(=O)N(Cc2ccccc2)[C@H]1c1ccc(CO)cc1 ?
A: condition met

Q: z-score >= 0.08 for C=C[C@@H](OC)[C@H](OC(=O)Nc1ccc(OC)cc1)c1ccc(OC)c(O)c1 ?
A: condition met

Q: z-score >= 0.08 for Cc1ccc(S[C@]2(C(=O)NC(C)C)CC(=O)N(C(C)C)[C@@H]2c2ccc(CO)cc2I)cc1 ?
A: condition not met

Q: z-score >= 0.08 for CCOC(=O)C1=CCN(S(=O)(=O)c2ccc(C)cc2)C1c1ccccc1 (centres undefined) ?
A: condition not met

Q: z-score >= 0.08 for C=C(COC)/C(=C/C[C@@H](OC(C)=O)c1ccc(CO)o1)c1cc(C(=O)OC)ccc1OC ?
A: condition met

Q: z-score >= 0.08 for COCCOC(=O)N1C(=O)[C@@]2(c3cc(C#CC4=CCCCC4)ccc31)[C@H](C(=O)N1CCCCCCC1)[C@H]1C(=O)O[C@H](c3ccccc3)[C@H](c3ccccc3)N1[C@@H]2c1ccc(OCCO)cc1 ?
A: condition met

Q: z-score >= 0.08 for CC1CC/C=C\[C@H]2OC34C=CCN(CCN5CCOCC5)C(=O)[C@H]3N(C(C)CO)C(=O)[C@@H]4C2C(=O)O1 (some centres undefined) ?
A: condition not met

Q: z-score >= 0.08 for NCCCCCNC(=O)[C@H]1C[C@H]2C(=O)N[C@@H](Cc3ccccc3)C(=O)N2[C@H]1c1ccc(O)cc1 ?
A: condition not met

Q: z-score >= 0.08 for CC(C)C[C@@H]1NC(=O)[C@@H]2C[C@H](C(=O)NCCCCCC[N+](C)(C)C)[C@H](c3cccc(OCCO)c3)N2C1=O ?
A: condition not met

Q: z-score >= 0.08 for CN(C)CCCCCCNC(=O)[C@@H]1C[C@@H]2C(=O)N[C@@H](CCCCN)C(=O)N2[C@@H]1c1ccc(O)cc1 ?
A: condition met

Data provenance is PubChem BioAssay.
